Parameter: growth inhibition. Scope: all listed entries.
assay: NCI Yeast Anticancer Drug Screen. Data for the mgt1 strain (AID 153); conditions: S. cerevisiae mgt1 mutant growth inhibition; at 3.7 µM; stronger effect = higher value
This is part of a sample that, as a whole, favours compounds with a hit. Of some 79,000 tested, about 15% had one in any assay.
Could you give me the number in %? Just the number is fine.

Example cases with answers are listed next.
COMPOUND: CC[C@@]1(OC(=O)CCC(=O)O)C(=O)OCc2c1cc1n(c2=O)Cc2cc3ccccc3nc2-1
growth inhibition [%]: -2

COMPOUND: O=C(/C=C/c1cccc(Br)c1)c1ccc(Cl)cc1
growth inhibition [%]: -36

COMPOUND: C=C1N(C)c2ccc(Cl)cc2C1(C)C
growth inhibition [%]: 0

What does the data say about its growth inhibition? Entry: Clc1c(Cl)c(Cl)c2c(nnn2C2CCCO2)c1Cl (stereo unspecified)
-9

Value lookup for growth inhibition; key = `Clc1cc(-c2ccccc2)nc2ccccc12`
32

Sample `NNC(=S)Nc1cccc2ccccc12` — what was its growth inhibition?
-45

----------
experiment: NCI Yeast Anticancer Drug Screen. Data for the rad50EPP+ strain (AID 151);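 also: 0% = growth of vehicle-treated control cultures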; conditions: S. cerevisiae rad50 mutant strain, at 11.0 µM
The panel holds about 79,000 compounds, 15% with a hit somewhere; the sample as a whole holds those more often. Calls of active or inactive are those of the source. Rule as the data show it: active = growth inhibition above about 70%; inactive = the rest.
// classify into active, inactive

Use these answered entries as a reference point.
COMPOUND: Cc1ccc(Nc2c3c(c(C#N)c4nc5ccccc5n24)CCCC3)cc1
LABEL VALUE: inactive

COMPOUND: CC(=O)OCC1OC(O[C@H]2C=C[C@@H](C(=O)OCc3ccccc3)n3c(=O)n(-c4ccccc4)c(=O)n32)C(OC(C)=O)C(OC(C)=O)C1OC(C)=O (stereo partly specified)
LABEL VALUE: inactive

COMPOUND: CN(C)CCN1C(=O)c2cccc3cc([N+](=O)[O-])cc(c23)C1=O
LABEL VALUE: inactive

Record lookup: outcome of this test for `CN[C@@H]1C[C@H]2O[C@@](C)([C@@H]1OC)n1c3ccccc3c3c4c(c5c6ccccc6n2c5c31)C(=O)N[C@@H]4O` ?
inactive

Recorded test call requested for Nc1nc(N)c2c(n1)CCC(S(=O)(=O)c1ccc3ccccc3c1)C2 (stereo unspecified)
inactive

# fetch the recorded call for `CCN(CC)CCNC(=O)c1nn(-c2ccc(Cl)cc2)c2c1CCc1cc(OC)ccc1-2` here
inactive

Call for entry `NC(N)=N/N=C/c1cc(Cl)cc(Cl)c1O` :
inactive

So what was the verdict on `N#C/C(=C/N1C(=O)/C(=C/c2ccc([N+](=O)[O-])cc2)SC1=S)c1nc2ccccc2s1` in this test?
inactive

Hi team, can someone confirm the assay call for `N#C/C(=C/c1c(Cl)cccc1Cl)C(N)=O` ?
inactive

What call does the record list for `Clc1nc(C(Cl)Cl)nc2sc3c(c12)CCCC3` ?
inactive

Dear all, I need the recorded test outcome for CCC(NC(C)c1ccccc1)C(=O)c1ccc(OCc2ccccc2)c(OCc2ccccc2)c1 (stereo unspecified) , thank you.
inactive

Name the outcome recorded for `NC(N)=NCCCS(=O)(=O)Nc1ccc(Nc2c3ccccc3nc3cc([N+](=O)[O-])ccc23)cc1` in the assay.
inactive

What outcome does the record of this test show for `O=S(=O)(N/N=C/c1cccc(Cl)c1)c1ccccc1` ?
inactive

Name the outcome recorded for `Cc1cc(OCc2ccccc2)ccc1[N+](=O)[O-]` in the assay.
inactive

Outcome logged for `COc1ccc(C(C#N)=C2C=CC(=NO)C=C2)cc1` in this assay:
active

How was `Cc1cccc(/C=N\NC(=S)N2CCCCC2)n1` classified in this test?
active

Hi team, can someone confirm the assay call for CC1=CCCC2C1(C)CCC(C)C2(C)Cc1cc(O)ccc1O (stereo unspecified) ?
inactive

Tell me the assay call for `O=C(/C=C\c1ccc([N+](=O)[O-])o1)Nc1ccc(Cl)cc1` please.
active

Answer briefly: the call reported for `O=C1C=CC(=O)N1c1ccc(N2C(=O)C=CC2=O)cc1` in this assay.
active

Entry `O=C(NC(=S)Nc1ccccn1)c1ccccc1` : call = ?
inactive

Hello, I am checking results. What call was entered for `Nc1ccc(S(=O)(=O)Nc2ccc(Nc3c4ccccc4nc4ccccc34)cc2)cc1` ?
active
